EXPERIMENT: isobaric coefficient of expansion
DETAILS: 298.15 K; 40000 kPa; Liquid; DSC with Pressure Shift
Listed below: isobaric coefficient of expansion values for each entry.

Previously resolved entries follow.
Q) // query isobaric coefficient of expansion value for entry CCCC(C)O (stereo unspecified)
A) 0.00081 1/K

Q) May I ask what isobaric coefficient of expansion has been recorded for CCCCCN ?
A) 0.000966 1/K

Then this molecule:
Q) Fill in the blank: the reported isobaric coefficient of expansion of CCC(O)CC is ____.
A) 0.000852 1/K

----------
EXPERIMENT: isobaric coefficient of expansion
DETAILS: 298.15 K; 15000 kPa; Liquid; DSC with Pressure Shift
QUANTITY KIND: isobaric coefficient of expansion

Here are 10 compounds together with their reported answers.
Q) Suppose we examine the compound CCCCCCCCO ; what isobaric coefficient of expansion value has been reported?
A) 0.000784 1/K

Q) What does the data say about its isobaric coefficient of expansion? Entry: CCCCCCCCCO
A) 0.000782 1/K

Q) Given CCC(O)CC , state its recorded isobaric coefficient of expansion.
A) 0.000935 1/K

Q) Query: isobaric coefficient of expansion; subject: CCCCCO
A) 0.000847 1/K

Q) Entry CCCCCCO has what isobaric coefficient of expansion?
A) 0.000812 1/K

Q) So what does the record say about isobaric coefficient of expansion for CCO ?
A) 0.001 1/K

Q) Returns the measured isobaric coefficient of expansion for the input compound. Input: CCCO
A) 0.00092 1/K

Q) Query: isobaric coefficient of expansion; subject: CCCCCN
A) 0.00107 1/K

Q) Form field: reported isobaric coefficient of expansion of CCCC(C)O (stereo unspecified)
A) 0.000914 1/K

Q) Please give the measured isobaric coefficient of expansion for this compound: CCCCCCCO
A) 0.000795 1/K

Field: next compound
Q) What measured isobaric coefficient of expansion goes with CCCCCCCCCCO ?
A) 0.000776 1/K

----------
The reader will find reported isobaric coefficient of expansion values listed item by item below.
EXPERIMENT: isobaric coefficient of expansion
DETAILS: 308.15 K; 55000 kPa; Liquid; DSC with Pressure Shift

The examples below pair each entry with its known result.
Q) # isobaric coefficient of expansion lookup, item CCCCCN [1-pentanamine]
A) 0.000898 1/K

Q) Which isobaric coefficient of expansion is reported for this molecule? CCCCCCCO [heptan-1-ol]
A) 0.000693 1/K

Q) Which isobaric coefficient of expansion is listed for CCCO [propan-1-ol] ?
A) 0.000794 1/K

Q) Bench note: what isobaric coefficient of expansion did CCC(O)CC [3-pentanol] show?
A) 0.000837 1/K

# input for lookup
Q) Can you look up the measured isobaric coefficient of expansion of CCCCCCCCCO [nonan-1-ol] for me?
A) 0.000673 1/K

----------
Listed next: entries and their corresponding isobaric coefficient of expansion.
EXPERIMENT: isobaric coefficient of expansion
DETAILS: 308.15 K; 25000 kPa; Liquid; DSC with Pressure Shift

Sample records with isobaric coefficient of expansion:
Q) Which value of isobaric coefficient of expansion has been reported for CCO [ethanol] in the records?
A) 0.000971 1/K

Q) I'd like to know its isobaric coefficient of expansion. The molecule in question is CCCC(C)O (stereo not drawn) [pentan-2-ol]
A) 0.000909 1/K

Q) Any idea what isobaric coefficient of expansion was measured for CCCCCCCCCCO [decan-1-ol] ?
A) 0.000748 1/K

Q) Need isobaric coefficient of expansion, item CCCCCCCCCO [nonan-1-ol]
A) 0.000753 1/K

More entries:
Q) Look up isobaric coefficient of expansion for this molecule: CCCCCCCCO [octan-1-ol]
A) 0.000762 1/K

Q) # lookup: isobaric coefficient of expansion of CCCCCN [1-pentanamine]
A) 0.00103 1/K

Q) Recorded isobaric coefficient of expansion for CCC(O)CC [3-pentanol] , please?
A) 0.000934 1/K

Q) So what does the record say about isobaric coefficient of expansion for CCCCCCO [hexan-1-ol] ?
A) 0.000796 1/K

----------
EXPERIMENT: isobaric coefficient of expansion
DETAILS: 298.15 K; 55000 kPa; Liquid; DSC with Pressure Shift
Recorded isobaric coefficient of expansion by entry

Q) Would you mind telling me what isobaric coefficient of expansion value was observed for CCO ?
A) 0.000839 1/K

Q) Quick one: isobaric coefficient of expansion for CCCCCCO ?
A) 0.0007 1/K

Q) Can you share its isobaric coefficient of expansion? I mean this compound: CCCCCCCO
A) 0.000684 1/K

Continuing:
Q) Give its isobaric coefficient of expansion value. Item: CCCCCO
A) 0.000717 1/K

Q) // isobaric coefficient of expansion lookup, key: CCCCCN
A) 0.000894 1/K

Q) Consider the compound CCCCCCCCCCO and give its measured isobaric coefficient of expansion.
A) 0.000669 1/K

Q) Bench note: what isobaric coefficient of expansion did CCC(O)CC show?
A) 0.000806 1/K

Q) Using the record for CCCC(C)O (stereo unspecified) , report its isobaric coefficient of expansion.
A) 0.000766 1/K

Q) Entry CCCO has what isobaric coefficient of expansion?
A) 0.000781 1/K

Q) What value of isobaric coefficient of expansion has been reported for the following compound? CCCCCCCCO
A) 0.000676 1/K

Q) Record request: isobaric coefficient of expansion value, item CCCCCCCCCO
A) 0.000672 1/K

----------
EXPERIMENT: isobaric coefficient of expansion
DETAILS: 308.15 K; 20000 kPa; Liquid; DSC with Pressure Shift
Reported values of isobaric coefficient of expansion for individual entries

Q) Which isobaric coefficient of expansion value is on record for CCCCCCCCCO ?
A) 0.000773 1/K

Q) What isobaric coefficient of expansion value was documented for this compound, CCO ?
A) 0.000994 1/K

Q) Look at this compound and give its reported isobaric coefficient of expansion. CCCC(C)O (stereo unspecified)
A) 0.000929 1/K

Q) GET /values?readout=isobaric coefficient of expansion&item= CCCO
A) 0.000925 1/K

Q) Item CCCCCCO has what recorded isobaric coefficient of expansion?
A) 0.000815 1/K

Q) What value of isobaric coefficient of expansion has been recorded for this entry: CCCCCCCCO
A) 0.000783 1/K

Q) // lookup isobaric coefficient of expansion for CCCCCCCO
A) 0.000796 1/K

Q) Item under review: CCC(O)CC . Reported isobaric coefficient of expansion?
A) 0.000953 1/K

Q) What measured isobaric coefficient of expansion goes with CCCCCCCCCCO ?
A) 0.000764 1/K

Q) Dear colleague, I am looking for the recorded isobaric coefficient of expansion of the following compound: CCCCCN
A) 0.00106 1/K

Q) For the compound shown here, CCCCCO , give the reported isobaric coefficient of expansion.
A) 0.000838 1/K

----------
EXPERIMENT: isobaric coefficient of expansion
DETAILS: 278.15 K; 55000 kPa; Liquid; DSC with Pressure Shift
# Lookup of reported isobaric coefficient of expansion keyed by entry

Q) Consider the compound shown here: CCCCCCCCO What is its recorded isobaric coefficient of expansion?
A) 0.000673 1/K

Q) Which value of isobaric coefficient of expansion has been reported for CCCO in the records?
A) 0.000767 1/K

Q) What value of measured isobaric coefficient of expansion is listed for CCCCCCO ?
A) 0.000699 1/K

Q) Query (compound): CCCCCCCCCO ; field requested: isobaric coefficient of expansion
A) 0.000672 1/K

Q) Bench note: what isobaric coefficient of expansion did CCCC(C)O (stereo not given) show?
A) 0.000719 1/K

Q) I would be grateful if you could share the reported isobaric coefficient of expansion for CCCCCO .
A) 0.000714 1/K

Q) Fill in the blank: the reported isobaric coefficient of expansion of CCO is ____.
A) 0.000839 1/K

Q) Fill in the blank: the reported isobaric coefficient of expansion of CCCCCN is ____.
A) 0.000895 1/K

New cases:
Q) Which isobaric coefficient of expansion value is on record for CCC(O)CC ?
A) 0.000743 1/K

Q) What measured isobaric coefficient of expansion goes with CCCCCCCO ?
A) 0.000673 1/K

----------
EXPERIMENT: isobaric coefficient of expansion
DETAILS: 318.15 K; 40000 kPa; Liquid; DSC with Pressure Shift
# isobaric coefficient of expansion per entry

Examples with answers:
Q) State the recorded isobaric coefficient of expansion for this entry: CCCCCCO
A) 0.000758 1/K

Q) Look up isobaric coefficient of expansion: CCCCCO
A) 0.000776 1/K

Q) Find the recorded isobaric coefficient of expansion belonging to CCCCCCCCCO and report it.
A) 0.000715 1/K

Q) Fill in the blank: the reported isobaric coefficient of expansion of CCC(O)CC is ____.
A) 0.000914 1/K

Q) Quick one: isobaric coefficient of expansion for CCCCCCCO ?
A) 0.000742 1/K

Q) # get_value(readout='isobaric coefficient of expansion', item= CCCO )
A) 0.000854 1/K

Next:
Q) Look up isobaric coefficient of expansion for this compound: CCCCCCCCCCO
A) 0.000711 1/K

Q) Entry CCCC(C)O (stereo unspecified) : reported isobaric coefficient of expansion = ?
A) 0.000879 1/K

Q) Would you mind telling me what isobaric coefficient of expansion value was observed for CCCCCN ?
A) 0.000967 1/K

Q) Given CCCCCCCCO , state its recorded isobaric coefficient of expansion.
A) 0.000727 1/K

Q) // query isobaric coefficient of expansion value for entry CCO
A) 0.000918 1/K
